Biological target: NLRP9
Experiment: pooled miR-30 sensor sort-seq; sequence = guide strand; note: reference of the scale not given here
Details: shRNA
Decide using sensor-assay potency score (higher = more potent): a value greater than or equal to -0.8 is MET, a smaller one is NOT MET.

Take a look at these entries with their results.
- Chain Sequence: "TTTTTTTGCAACAAACTGCTCA"
  Assigned Class: "MET"
- Chain Sequence: "TTGGTAATGAACATTGAGCAAA"
  Assigned Class: "NOT MET"
- Chain Sequence: "TTTACAAACAGGCTGAGCCAGC"
  Assigned Class: "NOT MET"
- Chain Sequence: "TTGTATTCCTCGTCAATCCAAG"
  Assigned Class: "NOT MET"
- Chain Sequence: "TAAATGTTGACAATGCTTCAGG"
  Assigned Class: "MET"

# bool: sensor-assay potency score (higher = more potent) of TTTCACACAAGTACAGACCAAC >= -0.8
MET

Quick one: TTGTTTAACGTACTTGTGCTTC
MET

Quick one: TTGACTTAAACTTTCAAGGCAT
MET

* * *

Target: GNAT1
Assay: pooled miR-30 sensor sort-seq; sequence = guide strand
Conditions: shRNA
Can you tell me sensor-assay potency score (higher = more potent) for the items I'm about to list?
Give bare numbers.

- Chain Sequence: "TGCACCTTGATGTAGTTGCCGG"
  Tgt: "GNAT1"
  Value Measured: -1.2
- Chain Sequence: "TTCTTTTCCAGCTCCCTGGAGT"
  Tgt: "GNAT1"
  Value Measured: -0.257
- Chain Sequence: "TAGCGGTGGTTGCAGATGCTGT"
  Tgt: "GNAT1"
  Value Measured: -1.65

The record that follows has no sensor-assay potency score (higher = more potent) shown yet.
Fill in the blank: the reported sensor-assay potency score (higher = more potent) of TTGGGTCCATCGTAGTCCGGGA is ____.
-0.616

* * *

Can you tell me sensor-assay potency score (higher = more potent) for the items I'm about to list?
Biological target: ARIH1
Experiment: pooled miR-30 sensor sort-seq; sequence = guide strand
Settings: shRNA

- Chain Sequence: "TTAGGGTAGTTCAAGTAGCAGA"
  Value Measured: -0.412
- Chain Sequence: "TTTAATTGCATGAGCACTCTAG"
  Value Measured: -0.104
- Chain Sequence: "TACTTTCTGCTTTATATCCTGC"
  Value Measured: 0.014
- Chain Sequence: "TTGTCTTGTACTTTCTGCTTTA"
  Value Measured: -0.218
- Chain Sequence: "TTAACAGTCGATTGCACTCTAC"
  Value Measured: -0.996

// for each sequence below, give its sensor-assay potency score (higher = more potent)
1. TTAACCACTTACATTTAACAGG
2. TTGGACTTTAACAACATGGTGG
3. TAGCGGTTACAGTTGTACCAGG

1. -0.703
2. 0.0155
3. -0.854

* * *

Target: IFLTD1
Assay: pooled miR-30 sensor sort-seq; sequence = guide strand
Details: shRNA
Decide using sensor-assay potency score (higher = more potent): a value greater than or equal to -0.6 is label 1, a smaller one is label 0.

Take a look at these entries with their results.
- Chain Sequence: "TTGAATAATACTAACCATCTGC"
  Assigned Class: "label 1"
- Chain Sequence: "TAAGTTTCTTTGAATCACCAAA"
  Assigned Class: "label 0"
- Chain Sequence: "TTGAGATATCTTTCTTAGGTTG"
  Assigned Class: "label 0"
- Chain Sequence: "TCTTCTTTTTCTTAGACCCTGA"
  Assigned Class: "label 1"

Next:
# bool: sensor-assay potency score (higher = more potent) of TATAGTTACTCTACTAATCTGA >= -0.6
label 1

* * *

Molecular target: RAB3GAP2
Assay: pooled miR-30 sensor sort-seq; sequence = guide strand
Details: shRNA
Can you tell me sensor-assay potency score (higher = more potent) for the items I'm about to list?
Answers are plain numbers.

// for each sequence below, give its sensor-assay potency score (higher = more potent)
1. TTAATTGACTGACAGACTCATA
2. TTATTTACTAGTTTAGCTGTTG
3. TTTATTCCACTGAACAACGTAC
4. TATGAGACAATCCTCCAGCTGT
5. TTTGCTGTGAAGCAGAGTCTGA
6. TTACAGGCAACACACCATCTTT
7. TTCAAGTGTTCTATTGACCTAA

-0.923
0.0265
-0.27
-0.612
-0.886
-1.36
0.6

// for each sequence below, give its sensor-assay potency score (higher = more potent)
1. TTCTGTGGGATCTTTGACCTTT
2. TTGACTGACAGACTCATAGAGT
3. TAAAACACAATCTTGGAGCCAG

1: 0.671; 2: -0.525; 3: 0.291

* * *

Biological target: LY96
Assay: pooled miR-30 sensor sort-seq; sequence = guide strand
Conditions: shRNA
Readout: sensor-assay potency score (higher = more potent)
One number for each entry.

- Chain Sequence: "TAGGTGTATGAAATACTTGCAT"
  Tgt: "LY96"
  Value Measured: -0.275
- Chain Sequence: "TAAATCTCTCCTTGGAATGTAG"
  Tgt: "LY96"
  Value Measured: -0.351
- Chain Sequence: "TTCAACAACACATTTGTATTTT"
  Tgt: "LY96"
  Value Measured: -1.05
- Chain Sequence: "TTGCTTTAAATCTCTCCTTGGA"
  Tgt: "LY96"
  Value Measured: 0.126
- Chain Sequence: "TTGTATTCACAGTCTCTCCCTT"
  Tgt: "LY96"
  Value Measured: 0.102

// for each sequence below, give its sensor-assay potency score (higher = more potent)
1. TAGGATGACAAACTCCAAGCAA
2. TATAATTGCTTTAAATCTCTCC

-0.085
0.0244

* * *

Target: SELO
Test: pooled miR-30 sensor sort-seq; sequence = guide strand
Conditions: shRNA
Readout: sensor-assay potency score (higher = more potent)
Answers are plain numbers.

- Chain Sequence: "TTCGCTGCATAGAAACTCCCGG"
  Value Measured: 0.0168
- Chain Sequence: "TGTTTGTGAAGTCGGCACCGGT"
  Value Measured: -1.02
- Chain Sequence: "AACACGTCGCGCACCACCGTGG"
  Value Measured: -0.914
- Chain Sequence: "TTGAGCTGCAGCTCCCAGCGCT"
  Value Measured: -0.647

The record that follows has no sensor-assay potency score (higher = more potent) shown yet.
Fill in the blank: the reported sensor-assay potency score (higher = more potent) of TTGCCGCTGAAGAACAGCGCGG is ____.
-1.34

* * *

Molecular target: CYP20A1
Assay: pooled miR-30 sensor sort-seq; sequence = guide strand
Conditions: shRNA
Can you tell me sensor-assay potency score (higher = more potent) for the items I'm about to list?
Numbers only.

Take a look at these entries with their results.
- Chain Sequence: "TTTATCTAATAATTCTTCTGAA"
  Value Measured: -0.378
- Chain Sequence: "TATCATACTGTCTTCTAGGATC"
  Value Measured: -0.814
- Chain Sequence: "TTCATCATCAAACCGATCTGGA"
  Value Measured: -0.00182

The record that follows has no sensor-assay potency score (higher = more potent) shown yet.
Fill in the blank: the reported sensor-assay potency score (higher = more potent) of TTATCTAATAATTCTTCTGAAA is ____.
-1.37

* * *

Target: MAN1C1
Test: pooled miR-30 sensor sort-seq; sequence = guide strand
Details: shRNA
Decide using sensor-assay potency score (higher = more potent): a value greater than or equal to -0.07 is yes (1), a smaller one is no (0).

- Chain Sequence: "TTCGGAACACCTCTTCTCCTGT"
  Tgt: "MAN1C1"
  Assigned Class: "no (0)"

# bool: sensor-assay potency score (higher = more potent) of TTTGTGTGTGTGCAAACACTGG >= -0.07
no (0)

Quick one: TTAGCCTCCATATCTGTCTTGC
no (0)

Quick one: TAACGCTTATAGCTCTGCCAAG
no (0)

* * *

Target: SOCS2
Experiment: pooled miR-30 sensor sort-seq; sequence = guide strand
Settings: shRNA
Can you tell me sensor-assay potency score (higher = more potent) for the items I'm about to list?
Give bare numbers.

- Chain Sequence: "TAATCTTTTAGTCTTGTTGGTA"
  Tgt: "SOCS2"
  Value Measured: -0.175

// for each sequence below, give its sensor-assay potency score (higher = more potent)
1. TTTTCCGTCTTGGTATTCGATT
2. TAGTAGGTAGTCTGAATGCGAG
3. TTCGAAGATTAGTTGGTCCAGC

1: -1.45; 2: -0.794; 3: 0.103

// for each sequence below, give its sensor-assay potency score (higher = more potent)
1. TATCCTTGCACATCTGAACATA
2. TTGCACATCTGAACATAGTAGT

-1.25
0.207

* * *

Target: CBX7
Experiment: pooled miR-30 sensor sort-seq; sequence = guide strand
Details: shRNA
Decide using sensor-assay potency score (higher = more potent): a value greater than or equal to -0.6 is Y, a smaller one is N.

Take a look at these entries with their results.
- Chain Sequence: "TTCTTTGAAAGTGACCAGGAAG"
  Tgt: "CBX7"
  Assigned Class: "N"
- Chain Sequence: "TGTACTTTGGGGGCCATCCTTT"
  Tgt: "CBX7"
  Assigned Class: "N"
- Chain Sequence: "ATACTCGACTTTACCCTTCCGC"
  Tgt: "CBX7"
  Assigned Class: "Y"
- Chain Sequence: "TACTCGACTTTACCCTTCCGCA"
  Tgt: "CBX7"
  Assigned Class: "N"
- Chain Sequence: "TCGTAGGCCATGACGAGGCGGG"
  Tgt: "CBX7"
  Assigned Class: "N"

# bool: sensor-assay potency score (higher = more potent) of TTCCGCACGCGCTTCTTCCGGA >= -0.6
Y
